Hello, the source for this data is patent EP4471048A1, in case you need it.

Assay: Peptide stability in simulated intestinal fluid (SIF)
Format: in vitro ADME
Conditions: pig, 37 °C, porcine pancreatin, pH 6.8, 4 h, read-out: SIF (% remaining 4 h)
*1 amine or outer side, *2 acyl side, *3 side chain or, on linkers, in order; H or OH if unused. Where a SMILES comes first, the peptide text is derived from it. Bridges are numbered along the chain shown (N, C = ends). [ ]: non-standard residue; d: D form. 2Nal = N[C@@H](Cc1ccc2ccccc2c1)C(=O)O; AEF = NCCOc1ccc(C[C@H](N)C(=O)O)cc1; X1 = O=C(Cc1ccc(CN[*:1])cc1)[*:2]; 3Pal = N[C@@H](Cc1cccnc1)C(=O)O; αMeL = CC(C)C[C@](C)(N)C(=O)O; CH2COCH2 = O=C(C[*:1])C[*:2]; Orn = NCCC[C@H](N)C(=O)O; Dab = NCC[C@H](N)C(=O)O; βAla = NCCC(=O)O
Test Readout: remaining at 4 h, 10 µM
# answer = value followed by unit

The reported value for CC(C)C[C@]1(C)NC(=O)[C@H](Cc2ccc3ccccc3c2)NC(=O)[C@H](Cc2ccc(OCCN)cc2)NC(=O)[C@@H]2CCNC(=O)CC[C@H](NC(=O)[C@H](CO)NC(=O)Cc3ccc(cc3)CNC(=O)CC[C@@H](C(=O)N[C@@H](CCN)C(=O)N[C@@H](Cc3cccnc3)C(N)=O)NC1=O)C(=O)N[C@@H](Cc1c[nH]c3ccccc13)C(=O)N[C@@H](CCC(N)=O)C(=O)N2 [Ref 122, reference compound] in terms of remaining at 4 h, 10 µM is 25%

The reported value for CNC(=O)[C@H](Cc1cccnc1)NC(=O)[C@H](CCN)NC(=O)[C@@H]1CCC(=O)NCCC[C@@H]2NC(=O)CC[C@H](NC(=O)[C@H](CCC(N)=O)NC(=O)[C@H](Cc3c[nH]c4ccccc34)NC(=O)CCNC2=O)C(=O)N[C@@H](Cc2ccc(OCCN)cc2)C(=O)N[C@@H](Cc2ccc3ccccc3c2)C(=O)N[C@@](C)(CC(C)C)C(=O)N1 [Compound 91] ([Orn][βAla]WQE[AEF][2Nal][αMeL]E[Dab][3Pal]-NHMe; lactam 1-9, N-5) in terms of remaining at 4 h, 10 µM is 57%

The reported value for `CNC(=O)[C@H](Cc1cccnc1)NC(=O)[C@H](CCN)NC(=O)[C@@H]1CCC(=O)NCCCC[C@@H]2NC(=O)CC[C@H](NC(=O)[C@H](CCC(N)=O)NC(=O)[C@H](Cc3c[nH]c4ccccc34)NC(=O)CCNC2=O)C(=O)N[C@@H](Cc2cccnc2)C(=O)N[C@@H](Cc2ccc3ccccc3c2)C(=O)N[C@@](C)(CC(C)C)C(=O)N1` in terms of remaining at 4 h, 10 µM is 86%

The reported value for `COc1ccc(C[C@@H]2NC(=O)[C@@H]3CCC(=O)N[C@@H](CCCCNC(=O)CC[C@@H](C(=O)N[C@@H](CCCCNC(=O)c4cccnc4)C(N)=O)NC(=O)[C@](C)(CC(C)C)NC(=O)[C@H](Cc4ccc5ccccc5c4)NC2=O)C(=O)N[C@@H]([C@@H](C)O)C(=O)N[C@@H](C(C)C)C(=O)N[C@@H](Cc2c[nH]c4ccccc24)C(=O)N[C@@H](CCC(N)=O)C(=O)N3)cc1` in terms of remaining at 4 h, 10 µM is 81%

Turning now to a further record.
The reported value for CC(C)C[C@]1(C)NC(=O)[C@H](Cc2ccc3ccccc3c2)NC(=O)[C@H](Cc2ccc(OCCN)cc2)NC(=O)[C@@H]2CSCC(=O)CSC[C@H](NC(=O)[C@H](CO)NC(=O)Cc3ccc(cc3)CNC(=O)CC[C@@H](C(=O)N[C@H](CCCNC(=N)N)C(N)=O)NC1=O)C(=O)N[C@@H](Cc1c[nH]c3ccccc13)C(=O)N[C@@H](CCC(N)=O)C(=O)N2 [Ref 80, reference compound] ([X1]SCWQC[AEF][2Nal][αMeL]E[dR]-NH2; linker 3-6 via CH2COCH2; lactam N-10) in terms of remaining at 4 h, 10 µM is 86%
